test system: SK-OV-3; experiment: Cytotoxicity against human SKOV3 cells assessed as cell growth inhibition after 24 hrs by MTT assay; assay type: functional, cell-based; details: SK-OV-3, 24 h
value.kind: pIC50
By convention, pIC50 is the negative base-10 log of a molar concentration.

Answered examples (8):
Recorded result, CCCCn1c2cc(OCCCCCn3c4ccccc4c4ccncc43)ccc2c2ccnc(C)c21 , pIC50: 4.19

// pIC50 value for Cc1nccc2c3ccccc3n(CCCCCCOc3ccc4c5ccnc(C)c5n(CCCc5ccccc5)c4c3)c12 : 4.71

In plain terms, CCn1c2cc(OCCCCCn3c4ccccc4c4ccnc(C)c43)ccc2c2ccnc(C)c21 has a documented pIC50 of 4.51

Entry CCCCn1c2cc(OCCCCn3c4ccccc4c4ccnc(C)c43)ccc2c2ccnc(C)c21.Cl ; pIC50 = 4.66

For Cc1nccc2c3ccc(OCCCCn4c5ccccc5c5ccncc54)cc3n(CCCc3ccccc3)c12.Cl the compound record lists pIC50 as 4.86

The recorded pIC50 for entry Cc1nccc2c3ccc(OCCCCn4c5ccccc5c5ccnc(-c6cccnc6)c54)cc3n(CCCc3ccccc3)c12 equals 4.64

Sample COc1ccc2c3ccnc(C)c3n(CCCCOc3ccc4c5ccnc(C)c5n(CCCc5ccccc5)c4c3)c2c1.Cl ; pIC50 observed: 4.52

Record summary for CCn1c2cc(OCCCCn3c4ccccc4c4ccncc43)ccc2c2ccnc(C)c21 : reported pIC50 = 4.70

Next up:
Item: COc1cc(-c2nccc3c4ccccc4n(CCCCOc4ccc5c6ccnc(C)c6n(CCCc6ccccc6)c5c4)c23)cc(OC)c1OC | pIC50: 4.99
